Numbers sourced from ChEMBL document CHEMBL1136691.

Record set of log10 IC50 for target or system Inosine-5'-monophosphate dehydrogenase 2 (Homo sapiens, UniProt P12268).
Field: value | Transform: log10 | Quantity: IC50 | Unit: nM

Cc1cccc(NC(=O)Nc2ccc3cnccc3c2)c1: 1.26
O=C(Nc1ccccc1)Nc1ccc2cnccc2c1Cl: 3.22
O=C(NCc1ccccc1)Nc1ccc2cnccc2c1: 2.60

In: GET /values?readout=log10 IC50&item= O=C(Nc1ccccc1)Nc1ccc2cnccc2c1
Out: 2.87

In: Also check Nc1ccc2cnccc2c1Br
Out: 2.74
